tested on: OCI-AML2; experiment: cell viability relative to vehicle control; higher = less cytotoxic; details: 10 µM; SRSF2 genotype: wt/wt;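 note: after 48 h exposure read by CellTiter-Glo luminescence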
property: cell viability (%)
Kindly provide the numeric value in % only, without the unit symbol.

cell viability reading for "CC(=O)Nc1nc2c(Oc3cc(-c4ccc(C(F)(F)F)cc4)ncn3)cccc2s1" : 88.9

cell viability reading for CC[C@H](Nc1ncnc2[nH]cnc12)c1oc2ccccc2c(=O)c1-c1cccc(F)c1 [Tenalisib (RP6530)] : 87.5

cell viability reading for "O=C(CCN1CCN(C(=O)OCc2cc(Cl)cc(Cl)c2)CC1)c1ccc2[nH]c(=O)oc2c1" : 109

---

tested on: OCI-AML2; experiment: cell viability relative to vehicle control; higher = less cytotoxic; settings: 10 µM; SRSF2 genotype: wt/wt;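 note: after 48 h exposure read by CellTiter-Glo luminescence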
property: cell viability (%)
Kindly provide the numeric value in % only, without the unit symbol.

Recorded results for 3 molecules are shown here.
[[record]]
molecule = "CCCCCCCCCCCCCCCC(=O)OCC(O)C1OC(=O)C(O)=C1O [L-Ascorbyl 6-palmitate]"
property = "cell viability"
number = 106

[[record]]
molecule = "Cc1cc(C(N)=O)ccc1-n1c(CCC(=O)O)ccc1-c1ccc(-n2ccnc2)cc1"
property = "cell viability"
number = 124

[[record]]
molecule = "O=c1c(-c2ccc(O[C@@H]3O[C@H](CO)[C@@H](O)[C@H](O)[C@H]3O)cc2)coc2cc(O)cc(O)c12 [Sophoricoside]"
property = "cell viability"
number = 105


Moving on to another molecule below.
Lab note: molecule CCCCCCCCCC(=O)OCC(COC(=O)CCCCCCCCC)OC(=O)CCCCCCCCC [Glyceryl tridecanoate] tested on OCI-AML2; recorded cell viability was 98.6
